- System: NCI-H23 lung
- protocol_description: NCI tumour cell line growth inhibition, 48 h

| compound | relation | TGI (µM) |
| --- | --- | --- |
| Cc1nc2c(sc(=S)n2-c2ccccc2)c2nc3ccccc3n12 | > | 100 |
| O=C1CCC(N2C(=O)c3cccc(NCCCC4CCN(CCNC(=O)c5cc6c(o5)C(=O)c5ccccc5C6=O)CC4)c3C2=O)C(=O)N1 (stereo not given) | = | 0.399 |
| CC(C)(C)c1cc(C(=O)/C=C/c2ccn[nH]2)cc(C(C)(C)C)c1O | = | 7.38 |
| C[C@@H]1CC[C@@H](C)[C@](C)(CCc2ccoc2)C/C=C\C=C/1C(=O)O | > | 50 |
| ONC1=Nc2ccccc2OCc2cc(Br)c(Br)cc2COc2ccccc2N=C1NO | = | 44.5 |
| CN(/N=N/c1nc[nH]c1C(N)=O)C1CCCCC1 | > | 100 |
| Cc1cc(O)ccc1C1(c2ccc(F)cc2)OC(=O)c2ccccc21 (stereo not given) | = | 3.27 |
| O/N=C1/C2CC3CC1(c1ccccc1)CC(/C3=N/O)/C2=N\O (stereo not given) | > | 100 |
| COc1cc(OC)cc(-c2n/c(=C\c3c(O)[nH]c4ccc(Cl)cc34)cc3c2=Nc2ccccc2-3)c1 | = | 6.06 |
| COc1cc(C2CC(=O)Nc3c2cc(Br)c2ccccc32)cc(Br)c1OC (stereo not given) | > | 100 |

====

- Test system: SR leukemia
- protocol_description: NCI tumour cell line growth inhibition, 48 h
Where a SMILES comes first, the peptide text is derived from it. Bridges are numbered along the chain shown (N, C = ends). The star is where a group is joined. Cbz = O=C(OCc1ccccc1)*

| molecule | tested_on | TGI |
| --- | --- | --- |
| O=S(=O)(NC1=NCCN1C(=S)SN1CCn2c1nsc2=S)c1cccc(OC(F)(F)F)c1 | SR leukemia | > 100 µM |
| C#CCSc1nc(N)c2ncn(C3OC(COP(=O)(O)O)C(O)C3O)c2n1 (centres undefined) | SR leukemia | > 239 µM |
| COC(=O)C1CCCCNC(=O)CCC(NC(=O)OCc2ccccc2)C(=O)N1 (stereo not drawn) (Cbz-Glu-Lys-OMe; lactam 1-2; configuration not given here) | SR leukemia | > 100 µM |
| NS(=O)(=O)c1cccc(-c2ccc3c(NC(=O)C4CC4)n[nH]c3c2)c1 | SR leukemia | > 25 µM |
| O=C(CCc1nc(=S)[nH][nH]1)Nc1cccc(C(F)(F)F)c1 | SR leukemia | > 100 µM |
| O=C1CSC(c2ccccc2O)N1c1nnc(Cn2ccnc2)o1 (centres undefined) | SR leukemia | > 100 µM |
| CCOC(=O)c1c(N2CCOCC2)[nH]c(=O)c(C(c2cccs2)c2c(O)c(C(=O)OCC)c(N3CCOCC3)[nH]c2=O)c1O | SR leukemia | > 100 µM |
| CN1Cc2c(nc(-c3ccc(Br)cc3)c[n+]2[O-])N(C)C1 | SR leukemia | > 100 µM |
| CCN1C(=O)N(CC)C2C1NN=c1s/c(=C\c3ccc[nH]3)c(=O)n12 (centres undefined) | SR leukemia | > 38.2 µM |

====

In this section, each of the compounds is paired with its reported TGI.
- System: RPMI-8226 leukemia
- protocol_description: NCI tumour cell line growth inhibition, 48 h

| compound | TGI |
| --- | --- |
| CSc1ncc2c(n1)-c1ccccc1OC2NC(C)(C)C (centres undefined) | > 100 µM |
| CC(=O)C12C[C@](C#N)(N3CCCCCC3)C1C=Cc1ccccc12 (some centres undefined) | > 100 µM |
| COc1ccc(/C(=N/Nc2nc3ccccc3[nH]2)C(=O)O)cc1 | > 100 µM |
| C=CCC1(CC)C(=O)NC(=O)NC1=O | > 100 µM |
| C=C(Br)CNCC(=C)Br | > 100 µM |
| COC(=O)/C(C#N)=C1\CCc2ccccc21 | > 100 µM |
| O=C(COc1ccc(Cl)cc1)N1CCN(C(=O)COc2ccc(Cl)cc2)c2ccccc21 | > 100 µM |
| Cc1ccc(NC(=O)CC2SC(N)=NC2=O)cc1C (centres undefined) | > 100 µM |
| Clc1ccccc1NN(Cc1ccncc1)c1ccccc1Cl | 42.2 µM |
| CCN(CC)CCCC(C)Nc1c(-c2ccccc2)cnc2cc(Cl)ccc12 (centres undefined) | 17.1 µM |
| N=C(N)SCCCN | > 68.9 µM |
| N#Cc1c(Nc2nc3ccccc3s2)c2ccccc2n2c1nc1ccccc12 | > 100 µM |
| NC(=O)c1cccc(-c2cc(C(N)=O)ccc2Cl)c1 | 3.11 µM |
| CC(=O)O[C@H]1CN(S(=O)(=O)c2ccc(C)cc2)C[C@@H]1C1CCCCC1 | 79.7 µM |
